- Assay overview: Metabolic stability in human liver microsomes
- Format: ADME, microsome
- Condition parameters: read-out: Stability
Endpoint label: microsomal CLint (µL/min/mg)
Answers are plain numbers, in µL/min/mg.

1. CNC(=O)c1ccc2c(c1)OC[C@H](N1CCc3c(nn(Cc4ccccc4)c3Cl)C1=O)C(=O)N2C: 13

# input for lookup
Q: # lookup: microsomal CLint of CN1C(=O)[C@@H](N2CCc3c(nn(Cc4ccccc4)c3Cl)C2=O)COc2ccccc21
Ans: 101
